Below, each entry is listed with its recorded EC50(wt)/EC50(mut).
TARGET: ErbB-3 receptor-Ig fusion (human) (UniProt P21860)
TEST METHOD NOTES: phage ELISA, ratio to wild-type HRG8 phage
// no unit, no text: just the number

Requested field: EC50(wt)/EC50(mut). Item: HRG60 (phage) (ligand) SHLVKCGEEREGFCVNGGECYRVKTLSNPSRYLCKCPNEFTGDRCQNYVIAS
63

Requested field: EC50(wt)/EC50(mut). Item: D4 (phage) (ligand) SHLVKCAEKEKTFCVNGGECYRVKTLSNPSRYLCKCPNEFTGDRCQNYVMAS
2.9

Requested field: EC50(wt)/EC50(mut). Item: SHLVKCGEEREGFCVNGGECFMVKDYGYLMCKCPNEFTGDRCQNYVMAS (ligand) [HRG54 (phage)]
12

***
Requested field: EC50(wt)/EC50(mut). Item: SHLVKCGEEREGFCVNGGECYRVKTYGYLMCKCPNEFTGDRCQNYVMAS (ligand) [HRG55 (phage)]
13

Requested field: EC50(wt)/EC50(mut). Item: B5 (phage) (ligand) SHLVKCGWDREGFCVNGGECFMVKDLSNPSRYLCKCPNEFTGDRCQNYVIAS
26
